The compounds listed here are annotated with their log10 of EC90.
# Test system: T. cruzi parasites in C2C12 host cells
# method: High-content imaging-based screening (HCS) assay
# Assay type: cell-based
# condition-notes: Trypanosoma cruzi; reduces parasite load in C2C12 cells by 90% relative to untreated controls; read-out: T. cruzi growth inhibition HCS EC90
endpoint-label: log10 of EC90 (log10 of the value in µM)

| compound | log10 of EC90 |
| --- | --- |
| Cc1ccc(C[C@H](NC(=O)c2ccncc2)C(=O)N[C@H](C)c2ccccc2)cc1 | 0.59 |
| Cc1ccc(C[C@H](NC(=O)c2ccncc2)C(=O)N[C@@H](CCc2ccccc2)CCS(=O)(=O)c2ccccc2)cc1 | -0.96 |
| CC[C@@H]([C@H](C)O)n1ncn(-c2ccc(N3CCN(c4ccc(OC[C@@H]5CO[C@@](Cn6cncn6)(c6ccc(F)cc6F)C5)cc4)CC3)cc2)c1=O [POSA, posaconazole, reference compound] | 0.43 |
| C#CCN1CCN(C(=O)N[C@@H](Cc2ccccc2)C(=O)N[C@H](/C=C/S(=O)(=O)c2ccccc2)CCc2ccccc2)CC1 | -1.77 |
| Cc1ccc(C[C@H](NC(=O)c2ccncc2)C(=O)N[C@H](/C=C/S(=O)(=O)c2ccccc2)CCc2ccccc2)cc1 | -1.00 |

----------
# tested-on: TcCYP51 (Trypanosoma cruzi, UniProt Q7Z1V1)
# Sequence (Q7Z1V1 whole entry): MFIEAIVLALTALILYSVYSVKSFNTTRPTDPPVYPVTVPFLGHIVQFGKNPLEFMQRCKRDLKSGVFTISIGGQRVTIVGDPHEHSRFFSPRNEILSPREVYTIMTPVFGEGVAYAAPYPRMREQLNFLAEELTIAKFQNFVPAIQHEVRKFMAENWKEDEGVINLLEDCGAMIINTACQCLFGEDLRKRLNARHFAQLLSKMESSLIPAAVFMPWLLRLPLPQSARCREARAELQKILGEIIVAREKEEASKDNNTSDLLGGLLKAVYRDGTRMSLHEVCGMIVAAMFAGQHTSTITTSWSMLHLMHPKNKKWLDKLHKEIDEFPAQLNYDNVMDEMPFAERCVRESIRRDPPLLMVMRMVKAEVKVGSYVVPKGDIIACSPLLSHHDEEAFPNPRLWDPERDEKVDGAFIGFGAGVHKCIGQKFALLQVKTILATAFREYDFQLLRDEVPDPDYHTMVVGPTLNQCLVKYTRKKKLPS

| compound | tested-on | Kd |
| --- | --- | --- |
| Cc1ccc(C[C@H](NC(=O)c2ccncc2)C(=O)N[C@H](C)c2ccccc2)cc1 [Compound 13] | TcCYP51 (Trypanosoma cruzi, UniProt Q7Z1V1) | 75 nM |
| CNC(=O)[C@H](Cc1ccc(C)cc1)NC(=O)c1ccncc1 [Compound 12] | TcCYP51 (Trypanosoma cruzi, UniProt Q7Z1V1) | 620 nM |
| Cc1ccc(C[C@H](NC(=O)c2ccncc2)C(=O)N[C@H](/C=C/S(=O)(=O)c2ccccc2)CCc2ccccc2)cc1 [Compound 4] | TcCYP51 (Trypanosoma cruzi, UniProt Q7Z1V1) | ≤ 5 nM |
| Cc1ccc(C[C@H](NC(=O)c2ccncc2)C(=O)N[C@@H](CCc2ccccc2)CCS(=O)(=O)c2ccccc2)cc1 [Compound 8] | TcCYP51 (Trypanosoma cruzi, UniProt Q7Z1V1) | ≤ 5 nM |
| Cc1ccc(C[C@H](NC(=O)c2ccccn2)C(=O)N[C@@H](CCc2ccccc2)CCS(=O)(=O)c2ccccc2)cc1 [Compound 7] | TcCYP51 (Trypanosoma cruzi, UniProt Q7Z1V1) | > 2000 nM |
| CN1CCN(C(=O)N[C@@H](Cc2ccccc2)C(=O)N[C@@H](CCc2ccccc2)CCS(=O)(=O)c2ccccc2)CC1 [Compound 6] | TcCYP51 (Trypanosoma cruzi, UniProt Q7Z1V1) | > 2000 nM |
| CN1CCN(C(=O)N[C@@H](Cc2ccccc2)C(=O)N[C@H](/C=C/S(=O)(=O)c2ccccc2)CCc2ccccc2)CC1 [Compound 1, reference compound] | TcCYP51 (Trypanosoma cruzi, UniProt Q7Z1V1) | > 2000 nM |
| Cc1ccc(C[C@H](NC(=O)c2ccccn2)C(=O)N[C@H](/C=C/S(=O)(=O)c2ccccc2)CCc2ccccc2)cc1.O=C(O)C(F)(F)F [Compound 3] | TcCYP51 (Trypanosoma cruzi, UniProt Q7Z1V1) | > 2000 nM |

----------
The compounds listed here are annotated with their IC50.
# tested-on: CYP3A4 (Homo sapiens, UniProt P08684)
# Sequence (P08684 whole entry): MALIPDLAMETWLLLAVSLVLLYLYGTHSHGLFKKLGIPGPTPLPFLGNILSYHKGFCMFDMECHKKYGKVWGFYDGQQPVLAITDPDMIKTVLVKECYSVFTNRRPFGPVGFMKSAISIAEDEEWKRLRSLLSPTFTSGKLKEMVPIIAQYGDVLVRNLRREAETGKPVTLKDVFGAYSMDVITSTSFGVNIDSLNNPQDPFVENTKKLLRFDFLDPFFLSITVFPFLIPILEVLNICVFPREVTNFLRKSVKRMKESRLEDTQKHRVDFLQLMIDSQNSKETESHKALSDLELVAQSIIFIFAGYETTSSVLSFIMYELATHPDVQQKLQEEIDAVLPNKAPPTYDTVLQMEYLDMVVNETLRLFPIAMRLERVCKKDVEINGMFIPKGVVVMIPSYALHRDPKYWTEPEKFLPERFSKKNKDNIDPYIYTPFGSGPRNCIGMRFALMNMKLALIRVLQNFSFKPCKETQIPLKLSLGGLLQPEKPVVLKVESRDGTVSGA
# method: CYP reversibility study (pre-incubation with or without NADPH), 3A4
# Type: in vitro ADME
# condition-notes: pre-incubation with NADPH
endpoint-label: IC50 (nM)

| compound | readout-value |
| --- | --- |
| CN1CCN(C(=O)N[C@@H](Cc2ccccc2)C(=O)N[C@H](/C=C/S(=O)(=O)c2ccccc2)CCc2ccccc2)CC1 [Compound 1, reference compound] | 5.9 |
| Cc1ccc(C[C@H](NC(=O)c2ccncc2)C(=O)N[C@H](/C=C/S(=O)(=O)c2ccccc2)CCc2ccccc2)cc1 | 117 |

----------
# tested-on: UniProt:P08684
# method: Mammalian CYP inhibition panel, 3A4
# Format: in vitro ADME

| molecule | IC50 |
| --- | --- |
| Cc1ccc(C[C@H](NC(=O)c2ccncc2)C(=O)N[C@H](/C=C/S(=O)(=O)c2ccccc2)CCc2ccccc2)cc1 | 0.8 µM |
| CN1CCN(C(=O)N[C@@H](Cc2ccccc2)C(=O)N[C@H](/C=C/S(=O)(=O)c2ccccc2)CCc2ccccc2)CC1 [Compound 1, reference compound] | 1.7 µM |

----------
The compounds listed here are annotated with their IC50.
# tested-on: UniProt:P33261
# method: CYP reversibility study (pre-incubation with or without NADPH), 2C19
# Format: in vitro ADME
# condition-notes: pre-incubation with NADPH
endpoint-label: IC50 (µM)

| compound | value-unit | readout-value |
| --- | --- | --- |
| Cc1ccc(C[C@H](NC(=O)c2ccncc2)C(=O)N[C@H](/C=C/S(=O)(=O)c2ccccc2)CCc2ccccc2)cc1 | µM | 0.3 |
| CN1CCN(C(=O)N[C@@H](Cc2ccccc2)C(=O)N[C@H](/C=C/S(=O)(=O)c2ccccc2)CCc2ccccc2)CC1 [Compound 1, reference compound] | µM | 5.54 |

----------
# tested-on: CYP3A4 (Homo sapiens, UniProt P08684)
# method: CYP reversibility study (pre-incubation with or without NADPH), 3A4
# Assay type: in vitro ADME
# condition-notes: pre-incubation without NADPH
endpoint-label: IC50

| compound | readout-value |
| --- | --- |
| Cc1ccc(C[C@H](NC(=O)c2ccncc2)C(=O)N[C@H](/C=C/S(=O)(=O)c2ccccc2)CCc2ccccc2)cc1 [Compound 4] | 46 nM |
| CN1CCN(C(=O)N[C@@H](Cc2ccccc2)C(=O)N[C@H](/C=C/S(=O)(=O)c2ccccc2)CCc2ccccc2)CC1 [Compound 1, reference compound] | 1080 nM |

----------
# System: CYP1A2, CYP2C9, CYP2C19, CYP2D6, CYP3A4 (average over the panel of mammalian CYP enzymes)
# method: Mammalian CYP inhibition panel, average over panel
# Type: in vitro ADME
# condition-notes: human; average of 1A2, 2C9, 2C19, 2D6, 3A4; read-out: average IC50 across the CYP panel

| chemical-smiles | IC50 |
| --- | --- |
| Cc1ccc(C[C@H](NC(=O)c2ccncc2)C(=O)N[C@H](/C=C/S(=O)(=O)c2ccccc2)CCc2ccccc2)cc1 | ~7 µM |

----------
The compounds listed here are annotated with their pIC50.
# tested-on: CYP2C19 (Homo sapiens)
# Sequence (P33261 whole entry): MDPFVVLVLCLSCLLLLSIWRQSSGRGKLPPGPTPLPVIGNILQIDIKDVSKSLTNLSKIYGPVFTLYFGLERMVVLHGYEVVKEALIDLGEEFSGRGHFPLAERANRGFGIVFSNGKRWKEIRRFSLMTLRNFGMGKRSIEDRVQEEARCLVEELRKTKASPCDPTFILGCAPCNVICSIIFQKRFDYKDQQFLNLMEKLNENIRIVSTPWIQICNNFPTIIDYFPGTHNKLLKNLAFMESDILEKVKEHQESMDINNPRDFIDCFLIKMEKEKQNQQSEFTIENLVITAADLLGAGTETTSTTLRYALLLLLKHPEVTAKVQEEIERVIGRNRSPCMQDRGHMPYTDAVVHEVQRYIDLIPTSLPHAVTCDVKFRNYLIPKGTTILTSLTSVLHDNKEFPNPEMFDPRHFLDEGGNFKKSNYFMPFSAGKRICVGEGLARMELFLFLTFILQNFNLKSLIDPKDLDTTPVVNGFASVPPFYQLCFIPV
# method: Mammalian CYP inhibition panel, 2C19
# Type: in vitro ADME
pIC50: −log10 of the molar value.

| compound | tested-on | pIC50 |
| --- | --- | --- |
| Cc1ccc(C[C@H](NC(=O)c2ccncc2)C(=O)N[C@H](/C=C/S(=O)(=O)c2ccccc2)CCc2ccccc2)cc1 | CYP2C19 (Homo sapiens) | 5.47 |
| CN1CCN(C(=O)N[C@@H](Cc2ccccc2)C(=O)N[C@H](/C=C/S(=O)(=O)c2ccccc2)CCc2ccccc2)CC1 [Compound 1, reference compound] | CYP2C19 (Homo sapiens) | 5.12 |

----------
The molecules listed here are annotated with their EC90.
# Tested on: T. cruzi parasites in C2C12 host cells
# method: High-content imaging-based screening (HCS) assay
# Assay type: cell-based
# condition-notes: Trypanosoma cruzi; reduces parasite load in C2C12 cells by 90% relative to untreated controls; read-out: T. cruzi growth inhibition HCS EC90
endpoint-label: EC90 (nM)

| molecule | readout-value |
| --- | --- |
| O=C(Cn1ccnc1[N+](=O)[O-])NCc1ccccc1 [BNZ, benzindazole, reference compound] | 7200 |
| Cc1ccc(C[C@H](NC(=O)c2ccccn2)C(=O)N[C@H](/C=C/S(=O)(=O)c2ccccc2)CCc2ccccc2)cc1.O=C(O)C(F)(F)F | 1850 |
| CN1CCN(C(=O)N[C@@H](Cc2ccccc2)C(=O)N[C@H](/C=C/S(=O)(=O)c2ccccc2)CCc2ccccc2)CC1 [Compound 1, reference compound] | 100 |

----------
# tested-on: CYP2D6 (Homo sapiens, UniProt P10635)
# Sequence (P10635 whole entry): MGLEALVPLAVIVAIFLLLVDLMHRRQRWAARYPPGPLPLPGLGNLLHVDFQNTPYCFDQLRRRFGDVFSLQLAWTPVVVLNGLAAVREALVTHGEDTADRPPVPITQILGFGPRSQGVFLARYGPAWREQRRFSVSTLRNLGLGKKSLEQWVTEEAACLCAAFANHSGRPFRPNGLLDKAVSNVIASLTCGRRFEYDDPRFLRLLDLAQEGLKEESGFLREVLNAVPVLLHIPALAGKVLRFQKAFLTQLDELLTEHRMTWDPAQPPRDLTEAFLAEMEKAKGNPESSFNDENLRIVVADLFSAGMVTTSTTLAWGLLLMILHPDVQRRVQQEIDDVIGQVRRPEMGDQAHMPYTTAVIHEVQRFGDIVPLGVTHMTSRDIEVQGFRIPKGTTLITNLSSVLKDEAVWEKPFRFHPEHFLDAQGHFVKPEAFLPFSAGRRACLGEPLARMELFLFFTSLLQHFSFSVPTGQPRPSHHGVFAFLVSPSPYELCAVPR
pIC50: −log10 of the molar value.

| molecule | pIC50 |
| --- | --- |
| CN1CCN(C(=O)N[C@@H](Cc2ccccc2)C(=O)N[C@H](/C=C/S(=O)(=O)c2ccccc2)CCc2ccccc2)CC1 [Compound 1, reference compound] | 4.59 |

----------
# tested-on: UniProt:P33261
# method: CYP reversibility study (pre-incubation with or without NADPH), 2C19
# Format: in vitro ADME
# condition-notes: pre-incubation without NADPH

| compound | tested-on | value-unit | IC50 |
| --- | --- | --- | --- |
| CN1CCN(C(=O)N[C@@H](Cc2ccccc2)C(=O)N[C@H](/C=C/S(=O)(=O)c2ccccc2)CCc2ccccc2)CC1 [Compound 1, reference compound] | UniProt:P33261 | µM | 8.22 |
| Cc1ccc(C[C@H](NC(=O)c2ccncc2)C(=O)N[C@H](/C=C/S(=O)(=O)c2ccccc2)CCc2ccccc2)cc1 [Compound 4] | UniProt:P33261 | µM | 0.17 |

meta.source: paper PMC3566858
